tested_target: T1, human PD-1 expressed on cells (CHO human PD-1 cells) (human, UniProt Q15116 21-288)
T1 construct: also called CHO TREX human PD-1 cell line; CHO PD-1
T1 sequence (Q15116 21-288): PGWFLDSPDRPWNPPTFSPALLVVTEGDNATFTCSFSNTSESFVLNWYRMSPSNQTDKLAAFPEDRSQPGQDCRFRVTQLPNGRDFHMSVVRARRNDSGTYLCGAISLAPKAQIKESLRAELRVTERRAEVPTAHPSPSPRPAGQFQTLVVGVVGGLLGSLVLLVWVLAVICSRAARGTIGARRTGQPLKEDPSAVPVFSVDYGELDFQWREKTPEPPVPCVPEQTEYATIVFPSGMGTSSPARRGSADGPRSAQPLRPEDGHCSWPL
measurement_notes: FMAT inhibition; 100 pM PD-L1-Fc on CHO human PD-1 cells
Experimental: All reagents and serially diluted VH were prepared in FMAT assay buffer. […] Plates were incubated for 2 hours at room temperature then fluorescence measured in the FL2 (502 nm-537 nm) and FL5 (677-800 nm) channels on the Mirrorball plate reader (TTP) following excitation at 488 nm and 640 nm. Data was expressed as a % of the total binding control (i.e. % control) after subtraction of the background signal determined from the non-specific binding control wells.
Examples of binders with documented IC50 follow.
The answer is to be given in nM; state only the numeric part.

The following binders have reported results that may help.
>>> value_observed("Humabody® 1.96 (VHH, human VH single domain antibody) VHH: EVQLVESGGGLVKPGGSLRLSCAASGFTFSDTSMTWMRQAPGKGLEWVSYISSGGGVKFYADSVKGRFTISRDNAKNSLYLQMNSLRAEDTAVYYCAREAPLRLGESPHDAFDISGQGTMVTVSS")
2.45
>>> value_observed("Humabody® 1.91 (VHH, human VH single domain antibody) VHH: EVQLVESGGGLVKPGGSLRLSCAASGFTFSDQSMTWMRQAPGKGLEWVSYISSGGGVKFYADSVKGRFTISRDNAKNSLYLQMNSLRAEDTAVYYCAREAPLRLGESPHDAFDISGQGTMVTVSS")
3.56

Consider the record given below.
-- ask Look up IC50 for this binder: Humabody® 1.93 (VHH, human VH single domain antibody) VHH: EVQLVESGGGLVKPGGSLRLSCAASGFTFSDASMTWMRQAPGKGLEWVSYISSGGGVKFYADSVKGRFTISRDNAKNSLYLQMNSLRAEDTAVYYCAREAPLRLGESPHDAFDISGQGTMVTVSS
-- reply 2.12
